Test system: MS2 coat protein
Measurement Protocol: apparent KD of MS2 coat protein; designed switch direction (-1 OFF switch, 1 ON switch): 1; higher = weaker reporter binding
Condition Set: Eterna round: R98; input ligand: FMN 200 uM
Measurement Label: apparent KD of MS2 coat protein (nM)
Supply the numeric figure in nM, leaving out any unit text.

Past entries and their recorded results:
[[record]]
construct_sequence = "ACCGGCACUUACAUGAGGAUCACCCAUGUGUGCAAUCGGACACAGGAUAUCCAUGGUAAGUAUCGGGAGAAGGGUGGAAAGAAA [Reustion]"
measurement_unit = "nM"
reported_value = 258

[[record]]
construct_sequence = "UCGGUUUUCGCAGGAUAUGGAGGAUACUCCCACAUGAGCAUCAGCCAUGUCUGCAUGGAGGAAGGCCAGAAGGGCGAGAACCGA [United States 2 - Jieux - Same State NG 2]"
measurement_unit = "nM"
reported_value = 13.5

[[record]]
construct_sequence = "CGCUGUCGCGCAGGAUAUGCAUUGGAUUACAAUGCAGAAGGGCGAUUACAUGAGGAUCACCCAUGUGUAGACAGUGAAGAAGAG [SameState #31 NG1]"
measurement_unit = "nM"
reported_value = 28.4

[[record]]
construct_sequence = "GGUCUGAUAUGAGGAUAUGCUCAGGAUAACUGAGCAGAAGGCAUGUGAAAACAUGAGGAUCACCCAUGUAUGAUCUACAGACCA [Same State NG1 - WT Aptamer 4D]"
measurement_unit = "nM"
reported_value = 22.7

[[record]]
construct_sequence = "UUAUAAAAUAUAGGAUAUGGAAACAUGAGGAUCACCCAUGUAUGAUAAGAUAAAUUAUGAUAUAGCCAGAAGGAUACAAUAUAA [LRO010_SS NG 2]"
measurement_unit = "nM"
reported_value = 35.4


For CUAAUAUAGUGAGGAUAUGCACAGGAUCACCGUGUAGAAGGCAUCAGGUAGAAGGUGCAGAGGAUCACCCUGUAAGGAUAUACA [pwkr2 ssNG1 DX.5] , write its apparent KD of MS2 coat protein. 102

For GUAGCAUACCGAGGAUAUUCAUACUGGAAACAGACAUGAGGAUCACCCAUGUGGCGAAAGCCUUGGGAGAAGGCGGAAUGCUAC [EliMod 9 - Jieux - Same State NG 2] , write its apparent KD of MS2 coat protein. 42.4

For CUAGCAUACCGAGGAUAUUCAUAUAAUAAAUAAACAUGAGGAUCACCCAUGUGGCGAAAGCCUAGGGAGAAGGCGGAAUGCUAU [salish99_SSNG2_r2_111] , write its apparent KD of MS2 coat protein. 23.8

For GACGAAUUCUUAGGAUAUCGAGUGGAAUACACUCGAGAAGGAAGAUAUACCUGAGGAUCACCCAGGUAAAACUGGACGUCAAUA [Same State NG1 - A3C, U17G Submission 8D A68U] , write its apparent KD of MS2 coat protein. 46.7

For AAAACAUGAGGAUCACCCAUGUAAAGAUCGGUUAAUAAAAGUGAGGAUAUACAAAAUUUUAUAUAGUAGAAGGCACUGGGUACA [JR_SSNG3_Sub002] , write its apparent KD of MS2 coat protein. 29.7

For GCCGUAAUAGCAGGAUAUGCUCCGGUUGCUCAUACAUGAGGAUCACCCAUGUCACGUGCGGUGGUGCAGAAGGGUUGAAGCGAU [Ausaso] , write its apparent KD of MS2 coat protein. 122

For GGUCCAUCAUGAGGAUAUGGCACCUUAUUUGUGCCAGAAGGCAUGUCAAUAGACAUGAGGAUCACCCAUGUAAUAAAUUGGACC [EliMod 3 - Jieux - Same State NG 1] , write its apparent KD of MS2 coat protein. 54.1

Source: the supplement of paper PMC9170038
